Please provide measured GI50 for the entries that follow.
Test system: TK-10 renal
measurement.description: NCI tumour cell line growth inhibition, 48 h

### Prompt If you can, please state the reported GI50 value of CCCCC[C@H]1C/C=C2/C(=O)C(Cl)=C[C@@H]2C/C=C\CCCC(=O)O1 .
### Response 612 nM

### Prompt Find the recorded GI50 belonging to C1=C\CCCCN2CC[C@H]3[C@H](CCCC/C=C\CCCN4C[C@@H](CCCCC/1)C[C@@H]3C4)C2 and report it.
### Response 2980 nM

### Prompt Please look up its GI50: CC1(C)CN(CCNc2nccc(-c3c(-c4cccc(O)c4)nc4sccn34)n2)S(=O)(=O)N1
### Response > 22600 nM

### Prompt Which GI50 is listed for CCC(=C(c1ccc(OCCN2CCCC2)cc1)c1ccc(OCCN2CCCC2)cc1)c1ccc(Cl)cc1 ?
### Response 628 nM

### Prompt Param item = NCCCNc1nc2ccccc2c2c(=O)c3cc(F)cc(Cl)c3sc12 ; retrieve measured GI50.
### Response 1910 nM

### Prompt Requested read-out: GI50. Entry: CC(C)(C)OC(=O)N1Cc2cc3ccccc3nc2C1CO (centres undefined)
### Response > 100000 nM

### Prompt Find the recorded GI50 belonging to C=C1C(=O)O[C@H]2[C@H]1CC/C(COC(=O)/C=C\C(=O)NCc1ccc(Cn3c(=O)sn(-c4ccc(Cl)cc4)c3=O)cc1)=C\CC[C@@]1(C)O[C@@H]21 and report it.
### Response 775 nM

### Prompt Reported GI50 for Nc1no[n+]([O-])c1-c1nnc2c(n1)-c1ccccc1C2=O : what is it?
### Response 13900 nM

### Prompt Report GI50 for O=C(CCl)Nc1ccc(Cc2ccc(NC(=O)CCl)cc2)cc1 please.
### Response 4170 nM

====

Test system: MOLT-4 leukemia
measurement.description: NCI tumour cell line growth inhibition, 48 h; in the data active = GI50 below about 0.43 µM; inactive = the rest
Classes to choose from: T for active, F for inactive

### Prompt Per the assay record, what outcome was assigned to CCC(C(=O)[C@@H](C)[C@@H](O)[C@H](C)[C@@H]1O[C@@H]([C@@H](CC)C(=O)ONC(=O)c2ccccc2)CC[C@@H]1C)[C@H]1O[C@]2(C=CC(=O)[C@]3(CC[C@@](C)([C@H]4CC[C@](O)(CC)[C@H](C)O4)O3)O2)[C@H](C)C[C@@H]1C (stereo partly drawn) ?
### Response F

### Prompt Would you mind telling me which call this test gave O=C(c1ccc(Nc2nccc(NCCCCNc3ccnc4cc(Cl)ccc34)n2)cc1)N1CCCCC1 ?
### Response F

### Prompt Please let me know the test result on file for C=C1C(=O)O[C@H]2[C@H]1CC/C(COC(=O)N[C@H](Cc1c[nH]c3ccccc13)C(=O)OC)=C\CC[C@@]1(C)O[C@@H]21 .
### Response F

### Prompt Name the outcome recorded for CCCCNCCCCCNc1cc(OC)cc2cccnc12 in the assay.
### Response F

### Prompt Could you kindly confirm the outcome this assay logged for COc1ccc(-c2nnc(Nc3nc(O)c(C4=c5cc(Br)ccc5=NC4=O)s3)o2)cc1 ?
### Response F

### Prompt Short answer needed: outcome of this test for O=C(COc1cccc(/C=C2\Oc3ccc4ccccc4c3C2=O)c1)c1ccc([N+](=O)[O-])cc1 ?
### Response F

### Prompt # lookup: test call for Clc1ccc(N2N=C(c3cccc(Nc4ccncc4)c3)CC2c2ccc(Br)cc2)cc1 (stereo not drawn)
### Response F

### Prompt Each molecule tested received a call. Report the one for CCCCC[C@H]1C/C=C2/C(=O)C(Cl)=C[C@@H]2C/C=C\CCCC(=O)O1 .
### Response T
